src = patent US20260184663A1

System: A549 (lung adenocarcinoma)
Protocol Description: Antiproliferative activity (CCK-8 cell viability), A549
Assay type: cell-based
Measurement Parameters: Homo sapiens, Compound concentration: 10 μM, 72 h, read-out: Antiproliferative activity in cancerous cells, A549 (inhibition of cell growth)
Assay Endpoint: inhibition at 10 µM

Compound | Assay Endpoint | Result
CC1=C(CC(=O)O)c2c(F)cccc2/C1=C\c1ccc(COc2ccccc2)cc1 | inhibition at 10 µM | 30 to 50%
O=C(O)CC1=C(CC2CCCC2)/C(=C/c2cccc(COc3ccccc3)c2)c2ccc(F)cc21 | inhibition at 10 µM | ≥ 50%
O=C(O)CC1=C(CC2CCCC2)/C(=C/c2ccc(COc3ccccc3)cc2)c2ccc(F)cc21 | inhibition at 10 µM | ≥ 50%

For each listed entry, give its inhibition at 10 µM.
1. O=C(O)CC1=C(CC2CCCC2)/C(=C/c2cccc(Oc3ccccc3)c2)c2ccc(F)cc21
2. CC1=C(CC(=O)O)c2cc(F)ccc2/C1=C\c1cccc([S+]([O-])c2ccc(F)cc2)c1 (stereo not drawn)
3. CC1=C(CC(=O)O)c2cc(Cl)ccc2/C1=C\c1ccc(CCc2ccccc2)cc1
4. CC1=C(CC(=O)O)c2cc(I)ccc2/C1=C\c1ccc(Oc2ccc(F)cc2)cc1
5. CC1=C(CC(=O)O)c2cc(F)ccc2/C1=C\c1ccc(CCOc2ccccc2)cc1
6. CCc1ccc(Oc2ccc(/C=C3\C(C)=C(CC(=O)O)c4cc(Cl)ccc43)cc2)cc1

Key:
≥ 50%
30 to 50%
< 30%
≥ 50%
≥ 50%
≥ 50%

----------
Consider the following compounds; for each one, report its inhibition at 10 µM.
System: A431 (epidermoid carcinoma)
Protocol Description: Antiproliferative activity (CCK-8 cell viability), A431
Assay type: cell-based
Measurement Parameters: Homo sapiens, A-431, Compound concentration: 10 μM, 72 h, read-out: Antiproliferative activity in cancerous cells, A431 (inhibition of cell growth)

Some compounds with known inhibition at 10 µM results, for comparison:
Compound | Assay Endpoint | Result
CC1=C(CC(=O)O)c2cc(F)ccc2/C1=C\c1cccc(C(=O)c2ccccc2)c1 [C304] | inhibition at 10 µM | 30 to 50%
O=C(O)CC1=C(Cc2ccc(Oc3ccc(F)cc3)cc2)/C(=C/c2ccc(CN3CCOCC3)cc2)c2ccc(F)cc21 [A113] | inhibition at 10 µM | < 30%
CC1=C(CC(=O)O)c2cc(F)ccc2/C1=C\c1cccc(Oc2ccc(I)cc2)c1 [C100] | inhibition at 10 µM | < 30%

Turning now to a further record.
Consider O=C(O)CC1=C(CC2CCCC2)/C(=C/c2ccc(Oc3ccc(F)cc3)cc2)c2ccc(F)cc21 [C7] . Its measured inhibition at 10 µM is ≥ 50%

----------
System: B16F10 (malignant melanoma)
Protocol Description: Antiproliferative activity (CCK-8 cell viability), B16F10
Format: cell-based
Measurement Parameters: Mus musculus, B16-F10, Compound concentration: 10 μM, 72 h, read-out: Antiproliferative activity in cancerous cells, B16F10 (inhibition of cell growth)
Protocol: The antiproliferative activity of a compound was determined in the following cell lines: MDA-MB-231 (breast cancer), HepG2 (liver cancer), SW480 (colon cancer), B16F10 (malignant melanoma), A431 (epidermoid carcinoma), A549 (lung adenocarcinoma), and HeLa (cervical cancer). […] Briefly cells were seeded in a 96-well plate at a density of 2,000-5,000 cells/well. […] After incubation at 37° C. for 4 h, the absorbance value of each well was determined using a multi-well plate reader at 450 nm. […]
Assay Endpoint: inhibition at 10 µM

Some compounds with known inhibition at 10 µM results, for comparison:
Compound | inhibition at 10 µM
CC1=C(CC(=O)O)c2cc(Cl)ccc2/C1=C\c1ccc(CCc2ccccc2)cc1 | ≥ 50%
COc1cc(Oc2cccc(/C=C3/C(C)=C(CC(=O)O)c4cc(F)ccc43)c2)ccc1Cl | ≥ 50%
COc1cc(COCc2ccc(/C=C3/C(C)=C(CC(=O)O)c4cc(F)ccc43)cc2)ccc1F | < 30%
CC1=C(CC(=O)N2CCN(CCO)CC2)c2cc(F)ccc2/C1=C\c1ccc(Oc2ccc(F)cc2)cc1 | < 30%
CC1=C(CC(=O)O)c2cc(F)ccc2/C1=C\c1ccc(Cc2cc3ccccc3o2)cc1 | ≥ 50%

For each listed entry, give its inhibition at 10 µM.
1. COc1ccc(/C=C2/C(C)=C(CC(=O)O)c3cc(F)ccc32)c(OCc2ccccc2)c1
2. COc1ccc(S(=O)(=O)Cc2ccc(/C=C3\C(C)=C(CC(=O)O)c4cc(F)ccc43)cc2)cc1
3. CCc1ccc2c(c1)C(CC(=O)O)=C(C)/C2=C/c1cccc(COc2ccccc2)c1

Key:
["≥ 50%", "30 to 50%", "≥ 50%"]

For each listed entry, give its inhibition at 10 µM.
1. CC1=C(CC(=O)O)c2cc(F)ccc2/C1=C\c1ccc(COc2ccc(F)cc2)cc1Br
2. CC1=C(CC(=O)O)c2c(F)ccc(F)c2/C1=C/c1ccc(C(F)(F)F)cc1
3. CC1=C(CC(=O)O)c2cc(F)ccc2/C1=C\c1cccc(CNc2ccccc2)c1
4. CC1=C(CC(=O)O)c2cc(F)ccc2/C1=C\c1cccc(C[S+]([O-])c2ccc(F)cc2)c1 (centres unmarked)
5. CC1=C(CC(=O)O)c2cc(F)ccc2/C1=C\c1cccc(S(=O)(=O)c2ccc(F)cc2)c1
6. CCc1ccc(/C=C2/C(Cc3ccc(Oc4ccc(F)cc4)cc3)=C(CC(=O)O)c3cc(F)ccc32)cc1

Key:
≥ 50%
< 30%
30 to 50%
≥ 50%
30 to 50%
≥ 50%

For each listed entry, give its inhibition at 10 µM.
1. CC1=C(CC(=O)O)c2cc(F)ccc2/C1=C\c1cccc([S+]([O-])c2ccc(F)cc2)c1 (centres unmarked)
2. CC1=C(CC(=O)O)c2cc(F)ccc2/C1=C\c1ccc(C(=O)c2ccccc2)cc1
3. O=C(O)CC1=C(CC2CCCC2)/C(=C/c2ccc(COc3ccccc3)cc2)c2ccc(F)cc21
4. CC1=C(CC(=O)O)c2ccc(F)c(F)c2/C1=C/c1ccc(Oc2ccc(F)cc2)cc1
5. CC1=C(CC(=O)O)c2cc(F)ccc2/C1=C\c1ccc(CCCc2ccc(F)cc2)cc1
6. CC1=C(CC(=O)O)c2cc(F)ccc2/C1=C\c1ccc(COCc2ccc(C(C)C)cc2)cc1

Key:
1: < 30%; 2: ≥ 50%; 3: ≥ 50%; 4: ≥ 50%; 5: ≥ 50%; 6: ≥ 50%
